# protocol-summary: Cytotoxicity in lymphoid CEMT4 cell cultures, MTT method
# Assay type: cell-based
# experimental-context: human, CEMT4 cells, viability relative to control cultures
# Description: Biological testing of compounds is based on the determination of their cytotoxicity, including determination of CC50 and CC90 (Cytotoxity Concentration) and the assessment of the ability to inhibit viral replication in cell cultures and the determination of IC50 and IC90 (Inhibitory Concentration). Cytotoxicity of compounds is assessed in cultures of established lymphoid CEMT4 cell lines using the MTT method. […] The amount of p24 viral protein is determined using an anti-p24 immunoenzymatic test. […]

# structure-smiles, CC50
data = [
    ("CCOP(=O)(C=C(C)[C@@H]1CC[C@]2(C(=O)O)CC[C@]3(C)[C@H](CC[C@@H]4[C@@]5(C)CC[C@H](OC(=O)CC(C)(C)C(=O)O)C(C)(C)[C@@H]5CC[C@]43C)[C@@H]12)OCC", "> 69 µM"),
    ("CCOP(=O)(C=C(C)[C@@H]1CC[C@]2(C(=O)O)CC[C@]3(C)[C@H](CC[C@@H]4[C@@]5(C)CC[C@H](OC(=O)CCC(C)(C)C(=O)O)C(C)(C)[C@@H]5CC[C@]43C)[C@@H]12)OCC", "> 68 µM"),
    ("C=C(CP(=O)(OCC)OCC)[C@@H]1CC[C@]2(C(=O)O)CC[C@]3(C)[C@H](CC[C@@H]4[C@@]5(C)CC[C@H](OC(=O)CCC(C)(C)C(=O)O)C(C)(C)[C@@H]5CC[C@]43C)[C@@H]12", "> 68 µM"),
    ("Cc1cn([C@H]2C[C@H](N=[N+]=[N-])[C@@H](CO)O2)c(=O)[nH]c1=O", "> 280 µM"),
    ("C=C(C)[C@@H]1CC[C@]2(C(=O)O)CC[C@]3(C)[C@H](CC[C@@H]4[C@@]5(C)CC[C@H](O)C(C)(C)[C@@H]5CC[C@]43C)[C@@H]12", "5 µM"),
    ("CCOP(=O)(C=C(C)[C@@H]1CC[C@]2(C(=O)O)CC[C@]3(C)[C@H](CC[C@@H]4[C@@]5(C)CC[C@H](OC(=O)CC(C)(C)CC(=O)O)C(C)(C)[C@@H]5CC[C@]43C)[C@@H]12)OCC", "> 68 µM"),
    ("C=C(CP(=O)(OCC)OCC)[C@@H]1CC[C@]2(C(=O)O)CC[C@]3(C)[C@H](CC[C@@H]4[C@@]5(C)CC[C@H](OC(=O)CC(C)(C)C(=O)O)C(C)(C)[C@@H]5CC[C@]43C)[C@@H]12", "> 69 µM"),
    ("C=C(CP(=O)(OCC)OCC)[C@@H]1CC[C@]2(C(=O)O)CC[C@]3(C)[C@H](CC[C@@H]4[C@@]5(C)CC[C@H](OC(=O)CC(C)(C)CC(=O)O)C(C)(C)[C@@H]5CC[C@]43C)[C@@H]12", "> 68 µM"),
]

This collection of values is drawn from patent EP3575310A1.
